Hello, the source for this data is patent US9587005B2, in case you need it.

EC50 listing for selected substances.
Biological target: glucagon receptor (Homo sapiens)
Construct: expressed in transfected cells; host or cells: HEK293
Sequence (P47871 26-477): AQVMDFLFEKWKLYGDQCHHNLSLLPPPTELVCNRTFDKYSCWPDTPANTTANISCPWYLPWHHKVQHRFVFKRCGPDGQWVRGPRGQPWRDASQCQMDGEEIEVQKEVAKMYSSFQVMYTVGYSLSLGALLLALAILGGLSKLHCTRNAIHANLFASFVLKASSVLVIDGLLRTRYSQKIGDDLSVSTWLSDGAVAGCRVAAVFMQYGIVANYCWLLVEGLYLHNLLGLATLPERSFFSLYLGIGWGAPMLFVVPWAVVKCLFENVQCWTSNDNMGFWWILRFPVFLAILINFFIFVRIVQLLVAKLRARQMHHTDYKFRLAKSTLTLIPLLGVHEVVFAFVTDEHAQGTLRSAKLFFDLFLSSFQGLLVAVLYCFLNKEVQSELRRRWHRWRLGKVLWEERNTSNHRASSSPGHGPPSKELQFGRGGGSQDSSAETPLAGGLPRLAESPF
Experiment: cAMP induction, firefly luciferase reporter assay in HEK293 cells co-transfected with glucagon receptor
Format: cell-based
Conditions: EC50 (nM) at glucagon receptor, Table 16, Example 24
*1 amine or outer side, *2 acyl side, *3 side chain or, on linkers, in order; H or OH if unused. Where no end group is shown, it is not given here. Side-chain parts run from the residue outwards. [ ]: non-standard residue; d: D form. The star is where a group is joined. γGlu = O=C(O)[C@H](CCC(=O)[*:2])N[*:1]; Palmitoyl = CCCCCCCCCCCCCCCC(=O)*; Aib = CC(C)(N)C(=O)O

substance: H[Aib]QGTFTSDYSKYLDERAAQDFVQWLLAGGPSSGAPPPSK([γGlu-γGlu-Palmitoyl])G-NH2 [SEQ ID NO: 203]
EC50: 0.003 nM
//
substance: H[Aib]QGTFTSDYSKYLDERAAQDFVQWLLDAGPSSGAPPPSK([γGlu-γGlu-Palmitoyl])G-NH2 [SEQ ID NO: 204]
EC50: 0.003 nM
//
substance: H[Aib]QGTFTSDYSKYLDERAAQDFVQWLLDGGPSSGAPPPSK([γGlu-γGlu-Palmitoyl])G-NH2 [SEQ ID NO: 89]
EC50: 0.006 nM
